Experiment: Quantitative highthroughput screen to assess conditional lethalithy of NOMO1 cells grown in Human Plasma-Like Medium with dialyzed fetal bovine serum (HPLM+ds) (AID 1963878); note: nearly all actives have a fitted effect of over 35% in size;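 for viability: 100% = DMSO wells and 0% = empty wells on each plate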
Details: NOMO1 AML cells in HPLM+ds, CellTiter-Glo viability, 48 h; series mostly up to 45.8 µM
Inconclusive results are not listed. Active and inactive are the calls of the source. Calls come from the whole dose curve; as a rule, active = well fitted cell-killing curve with a large enough effect; inconclusive = small, poorly fitted or top-dose-only effect, or effect the other way; inactive = no such curve, though single readings can be large or run the other way.
Classes used: yes (1) = active, no (0) = inactive

[
  {
    "MOLECULE": "Clc1ccc(COC(Cn2ccnc2)c2ccc(Cl)cc2Cl)c(Cl)c1 (configuration not stated)",
    "ASSIGNED_CLASS": "no (0)"
  },
  {
    "MOLECULE": "CC(C)(C#N)c1cc(Cn2cncn2)cc(C(C)(C)C#N)c1",
    "ASSIGNED_CLASS": "no (0)"
  },
  {
    "MOLECULE": "Clc1ccc(C(c2ccc(Cl)cc2)n2cc[n+](CC(OCc3ccc(Cl)cc3Cl)c3ccc(Cl)cc3Cl)c2)cc1 (configuration not stated)",
    "ASSIGNED_CLASS": "yes (1)"
  },
  {
    "MOLECULE": "CNC1CCCN(c2c(F)cc3c(=O)c(C(=O)O)cn(C4CC4)c3c2OC)C1 (configuration not stated)",
    "ASSIGNED_CLASS": "no (0)"
  },
  {
    "MOLECULE": "COc1ccc(CCN2CCN(CCCc3ccccc3)CC2)cc1OC",
    "ASSIGNED_CLASS": "no (0)"
  },
  {
    "MOLECULE": "C=C1[C@H](n2cnc3c(=O)[nH]c(N)nc32)C[C@H](O)[C@H]1CO",
    "ASSIGNED_CLASS": "yes (1)"
  },
  {
    "MOLECULE": "Cn1c2cc(S(C)=O)sc2c2cnn(Cc3cccc(N)c3)c(=O)c21 (configuration not stated)",
    "ASSIGNED_CLASS": "no (0)"
  },
  {
    "MOLECULE": "c1coc(CNc2ncnc3nc[nH]c23)c1",
    "ASSIGNED_CLASS": "no (0)"
  },
  {
    "MOLECULE": "CCN(CC)C(=S)SSC(=S)N(CC)CC",
    "ASSIGNED_CLASS": "yes (1)"
  },
  {
    "MOLECULE": "CC[C@H](C)C(=O)O[C@H]1C[C@@H](C)C=C2C=C[C@H](C)[C@H](CC[C@@H]3C[C@@H](O)CC(=O)O3)[C@H]21",
    "ASSIGNED_CLASS": "yes (1)"
  },
  {
    "MOLECULE": "COc1cc(C[C@@H](CO)[C@H](CO)Cc2ccc(O)c(OC)c2)ccc1O",
    "ASSIGNED_CLASS": "no (0)"
  },
  {
    "MOLECULE": "CC(C)C[C@H](NC(=O)CNC(=O)c1cc(Cl)ccc1Cl)B1OC(=O)CC(CC(=O)O)(C(=O)O)O1 (some centres not stated)",
    "ASSIGNED_CLASS": "yes (1)"
  },
  {
    "MOLECULE": "CC(C)NCC(O)COc1ccc(CCOCC2CC2)cc1 (configuration not stated)",
    "ASSIGNED_CLASS": "yes (1)"
  },
  {
    "MOLECULE": "CN1C(=O)C(Cc2c[nH]c3ccccc23)NC1=S (configuration not stated)",
    "ASSIGNED_CLASS": "no (0)"
  },
  {
    "MOLECULE": "Cc1cccc(Nc2nc(-c3ccncc3)cs2)c1",
    "ASSIGNED_CLASS": "no (0)"
  },
  {
    "MOLECULE": "NC(CO)(CO)CCc1ccc(Sc2cccc(OCc3ccccc3)c2)cc1Cl",
    "ASSIGNED_CLASS": "yes (1)"
  },
  {
    "MOLECULE": "NC(=O)c1ncn([C@@H]2O[C@H](CO)[C@@H](O)[C@@H]2O)c1O",
    "ASSIGNED_CLASS": "no (0)"
  },
  {
    "MOLECULE": "O=C1NC(=O)C(=Cc2ccc3nccc(-c4ccncc4)c3c2)S1",
    "ASSIGNED_CLASS": "yes (1)"
  },
  {
    "MOLECULE": "O=C(c1ccc(F)cc1)C1CCN(CCn2c(=O)[nH]c3ccccc3c2=O)CC1",
    "ASSIGNED_CLASS": "no (0)"
  },
  {
    "MOLECULE": "Nc1nc(F)nc2c1ncn2[C@@H]1O[C@H](COP(=O)(O)O)[C@@H](O)[C@H]1O",
    "ASSIGNED_CLASS": "yes (1)"
  },
  {
    "MOLECULE": "C[C@]12CC[C@H](O)CC1=CC[C@@H]1[C@H]2CC[C@]2(C)C(c3cccnc3)=CC[C@H]12",
    "ASSIGNED_CLASS": "no (0)"
  },
  {
    "MOLECULE": "O=C(c1ccc(F)cc1)N1CCC[C@H](c2nc(-c3ccc(F)cc3)no2)C1",
    "ASSIGNED_CLASS": "no (0)"
  },
  {
    "MOLECULE": "COC(c1ccccc1)(c1ccccc1)[C@H](Oc1nc(C)cc(C)n1)C(=O)O",
    "ASSIGNED_CLASS": "no (0)"
  },
  {
    "MOLECULE": "COc1ccc(-c2ccc3cc(C(=O)O)ccc3c2)cc1C12CC3CC(CC(C3)C1)C2",
    "ASSIGNED_CLASS": "no (0)"
  },
  {
    "MOLECULE": "OC1CCC(Nc2ncc3nc(Nc4c(F)cc(F)cc4F)n([C@@H]4CCOC4)c3n2)CC1 (some centres not stated)",
    "ASSIGNED_CLASS": "no (0)"
  },
  {
    "MOLECULE": "Nc1nc(F)nc2c1ncn2[C@@H]1O[C@H](CO)[C@@H](O)[C@@H]1O",
    "ASSIGNED_CLASS": "yes (1)"
  },
  {
    "MOLECULE": "CC(O)=C(C#N)C(=O)Nc1ccc(C(F)(F)F)cc1",
    "ASSIGNED_CLASS": "no (0)"
  },
  {
    "MOLECULE": "O=c1cc(-c2ccc(O)c(O)c2)oc2cc(O)cc(O)c12",
    "ASSIGNED_CLASS": "no (0)"
  },
  {
    "MOLECULE": "COc1ccc2[nH]cc(CCNC(C)=O)c2c1",
    "ASSIGNED_CLASS": "no (0)"
  },
  {
    "MOLECULE": "CN(C)CCC=C1c2ccccc2COc2ccc(CC(=O)O)cc21",
    "ASSIGNED_CLASS": "no (0)"
  },
  {
    "MOLECULE": "CN(C)CCc1c[nH]c2ccc(C[C@H]3COC(=O)N3)cc12",
    "ASSIGNED_CLASS": "yes (1)"
  },
  {
    "MOLECULE": "NC(=O)c1cccc(N)c1",
    "ASSIGNED_CLASS": "no (0)"
  },
  {
    "MOLECULE": "CCOC(=O)Nc1ccc(NCc2ccc(F)cc2)nc1N",
    "ASSIGNED_CLASS": "no (0)"
  },
  {
    "MOLECULE": "CC(NCCc1ccc(O)cc1)C(O)c1ccc(O)cc1 (configuration not stated)",
    "ASSIGNED_CLASS": "no (0)"
  },
  {
    "MOLECULE": "Cc1ccc(CN2CCNCC2)cc1NC(=O)CNc1ccc(F)c(F)c1",
    "ASSIGNED_CLASS": "no (0)"
  },
  {
    "MOLECULE": "OCCNC1CCCc2c1[nH]c1ccc(-c3ccccc3)cc21 (configuration not stated)",
    "ASSIGNED_CLASS": "yes (1)"
  },
  {
    "MOLECULE": "CC(N)C12CC3CC(CC(C3)C1)C2 (configuration not stated)",
    "ASSIGNED_CLASS": "yes (1)"
  },
  {
    "MOLECULE": "CC(C[N+](C)(C)C)OC(N)=O (configuration not stated)",
    "ASSIGNED_CLASS": "no (0)"
  },
  {
    "MOLECULE": "O=C1c2c(O)cc(O)cc2OC(c2ccc(O)c(O)c2)C1O (configuration not stated)",
    "ASSIGNED_CLASS": "no (0)"
  },
  {
    "MOLECULE": "N#CC(=C1Nc2ccccc2S1)c1ccnc(OCc2ccc(CN3CCOCC3)cc2)n1",
    "ASSIGNED_CLASS": "yes (1)"
  },
  {
    "MOLECULE": "CO[C@H]1C(=O)[C@]2(C)[C@@H](OC)C[C@H]3OC[C@@]3(OC(C)=O)[C@H]2[C@H](OC(=O)c2ccccc2)[C@]2(O)C[C@H](OC(=O)[C@H](O)[C@@H](NC(=O)OC(C)(C)C)c3ccccc3)C(C)=C1C2(C)C",
    "ASSIGNED_CLASS": "yes (1)"
  },
  {
    "MOLECULE": "CCCCc1ccc(NS(=O)(=O)c2ccc(C)c(C(=O)N3CCN(c4cccc(C)c4C)CC3)c2)cc1",
    "ASSIGNED_CLASS": "no (0)"
  }
]
